Reported IC50 values are given for each entry in this list.
- system name: human GPR84 receptor (Homo sapiens, UniProt Q9NQS5)
- Construct: frozen aliquots prepared by acCELLerate
- Sequence (Q9NQS5 whole entry): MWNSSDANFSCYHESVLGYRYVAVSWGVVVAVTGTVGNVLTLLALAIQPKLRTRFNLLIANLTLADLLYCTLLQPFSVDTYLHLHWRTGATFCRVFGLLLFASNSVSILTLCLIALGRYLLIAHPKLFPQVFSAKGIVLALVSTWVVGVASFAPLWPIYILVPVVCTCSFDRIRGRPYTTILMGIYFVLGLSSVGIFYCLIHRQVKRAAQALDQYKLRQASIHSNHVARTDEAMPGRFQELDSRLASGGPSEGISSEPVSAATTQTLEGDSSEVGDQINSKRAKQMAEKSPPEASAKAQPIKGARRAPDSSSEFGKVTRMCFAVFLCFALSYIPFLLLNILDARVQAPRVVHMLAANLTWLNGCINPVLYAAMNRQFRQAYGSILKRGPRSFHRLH
- measurement protocol: cAMP HTRF assay for identification of cellular GPR84 antagonists
- experimental conditions: CHO-K1 cells stably expressing human GPR84; Forskolin plus agonist 6-OAU; cAMP HTRF readout; average or median values
assay endpoint: IC50 (nM)

INSERT INTO measurements (compound, quantitative_readout) VALUES
  ('O=C(NCCc1cccnc1)c1oc2ccc3cn(C[C@H]4COCCO4)nc3c2c1C(F)(F)F', 3580),
  ('O=C(NCC1CC(F)(F)CO1)c1oc2ccc3cn(C[C@H]4COCCO4)nc3c2c1C(F)(F)F (mixture of isomers)', 11),
  ('O=C(NCc1cccnn1)c1oc2ccc3cn(C[C@H]4COCCO4)nc3c2c1C(F)(F)F', 460),
  ('Cc1cc2oc(C(=O)NC[C@@H]3COCCO3)c(C(F)(F)F)c2c2nn(C[C@H]3COCCO3)cc12', 32),
  ('Cc1ccc(CNC(=O)c2oc3ccc4cn(C[C@H]5COCCO5)nc4c3c2C(F)(F)F)nc1', 7),
  ('O=C(NCc1ncccn1)c1oc2ccc3cn(C[C@H]4COCCO4)nc3c2c1C(F)(F)F', 48),
  ('Cc1cc2oc(C(=O)NC[C@@H]3CCCO3)c(C(F)(F)F)c2c2nn(C[C@H]3COCCO3)cc12', 21),
  ('Cc1cnc(CNC(=O)c2oc3ccc4cn(C[C@H]5COCCO5)nc4c3c2C(F)(F)F)cn1', 18);

Data provenance is patent US20240417407A1.
